system: Ca-Ski; experiment: Cytotoxicity against human CaSki cells assessed as induction of necrosis at antiproliferative IC50 after 24 hrs by LDH release assay relative to control; assay type: cell-based
reported-property: Activity (%)
Only the number, expressed in %, is required.

For orientation, consider the following solved cases.
| compound | value-measured |
| --- | --- |
| CC(C)(C)OC(=O)N1C[C@@H]2C[C@H]1CN2C(=S)SC(C[N+](=O)[O-])c1ccc(F)cc1 (stereo partly drawn) | 5 |
| CC(C)(C)OC(=O)N1C[C@@H]2C[C@H]1CN2C(=S)SC(C[N+](=O)[O-])c1ccc(Cl)cc1 (stereo partly drawn) | 15 |
| CC[C@@]1(O)C(=O)OCc2c1cc1n(c2=O)Cc2cc3ccccc3nc2-1 | 2 |

Give the measured Activity of CC(C)(C)OC(=O)N1CCN(C(=S)SC(C[N+](=O)[O-])c2ccccc2)CC1 (stereo not drawn) .
0

// same read-out, input: COc1ccc(C(C[N+](=O)[O-])SC(=S)N2C[C@@H]3C[C@H]2CN3C(=O)OC(C)(C)C)cc1 (stereo partly drawn)
0

// same read-out, input: Cc1ccc(C(C[N+](=O)[O-])SC(=S)N2C[C@@H]3C[C@H]2CN3C(=O)OC(C)(C)C)cc1 (stereo partly drawn)
2

// same read-out, input: CC(C)(C)OC(=O)N1C[C@@H]2C[C@H]1CN2C(=S)SC(C[N+](=O)[O-])c1ccccc1 (stereo partly drawn)
2

// same read-out, input: CC(C)(C)OC(=O)N1C[C@@H]2C[C@H]1CN2C(=S)SC(C[N+](=O)[O-])c1ccc(C(F)(F)F)cc1 (stereo partly drawn)
20

###

Examples of compounds with documented Activity follow.
assay: Cytotoxicity against human ViBo cells assessed as induction of necrosis at antiproliferative IC50 after 24 hrs by LDH release assay relative to control; type: cell-based
Only the number, expressed in %, is required.

For orientation, consider the following solved cases.
| compound | Activity, % |
| --- | --- |
| CC(C)(C)OC(=O)N1C[C@@H]2C[C@H]1CN2C(=S)SC(C[N+](=O)[O-])c1ccccc1 (stereo partly drawn) | 0 |
| CC(C)(C)OC(=O)N1C[C@@H]2C[C@H]1CN2C(=S)SC(C[N+](=O)[O-])c1ccc(F)cc1 (stereo partly drawn) | 8 |
| CC(C)(C)OC(=O)N1C[C@@H]2C[C@H]1CN2C(=S)SC(C[N+](=O)[O-])c1ccc(Cl)cc1 (stereo partly drawn) | 12 |
| CC[C@@]1(O)C(=O)OCc2c1cc1n(c2=O)Cc2cc3ccccc3nc2-1 | 0 |
| COc1ccc(C(C[N+](=O)[O-])SC(=S)N2C[C@@H]3C[C@H]2CN3C(=O)OC(C)(C)C)cc1 (stereo partly drawn) | 5 |

Give the measured Activity of CC(C)(C)OC(=O)N1CCN(C(=S)SC(C[N+](=O)[O-])c2ccccc2)CC1 (stereo not drawn) .
0

// same read-out, input: CC(C)(C)OC(=O)N1C[C@@H]2C[C@H]1CN2C(=S)SC(C[N+](=O)[O-])c1ccc(C(F)(F)F)cc1 (stereo partly drawn)
0

// same read-out, input: Cc1ccc(C(C[N+](=O)[O-])SC(=S)N2C[C@@H]3C[C@H]2CN3C(=O)OC(C)(C)C)cc1 (stereo partly drawn)
5
